Sourced from ChEMBL document CHEMBL5154672

# measured-on: Histone deacetylase 1 (Homo sapiens)
# Sequence (Q13547 whole entry): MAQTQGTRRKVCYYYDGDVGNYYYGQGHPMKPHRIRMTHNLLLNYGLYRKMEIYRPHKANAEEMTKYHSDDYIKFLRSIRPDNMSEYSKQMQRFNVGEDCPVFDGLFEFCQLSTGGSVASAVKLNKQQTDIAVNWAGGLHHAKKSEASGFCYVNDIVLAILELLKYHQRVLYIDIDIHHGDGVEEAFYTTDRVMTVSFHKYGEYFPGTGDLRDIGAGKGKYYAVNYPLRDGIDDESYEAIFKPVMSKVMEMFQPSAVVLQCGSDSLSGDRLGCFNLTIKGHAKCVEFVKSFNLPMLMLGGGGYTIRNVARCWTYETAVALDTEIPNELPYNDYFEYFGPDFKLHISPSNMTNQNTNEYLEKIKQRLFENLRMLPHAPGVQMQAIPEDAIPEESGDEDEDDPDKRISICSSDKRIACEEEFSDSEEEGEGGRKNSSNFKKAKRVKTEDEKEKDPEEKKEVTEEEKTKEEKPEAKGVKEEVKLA
# measurement-description: Inhibition of HDAC1 (unknown origin) using RHKK(Ac)AMC fluorogenic peptide as substrate preincubated for 10 mins followed by substrate addition for 1 hr in presence of ATP by fluoroscence based assay
# IC50 per record follows
Give your result in nM as a bare value.

1. Nc1ccccc1NC(=O)c1ccc(CN2CCC/C(=C\c3cccnc3)C2=O)cc1 :: 219

Kindly consider the entry below.
Summary for this compound, Cc1ccccc1/C=C1\CCCN(Cc2ccc(C(=O)Nc3ccc(F)cc3N)cc2)C1=O : IC50 is 2450

* * *

# measurement-description: MRT in monkey plasma at 10 mg/kg, po measured upto 24 hrs by LC-MS/MS analysis
# Type: ADME, organism-based, Macaca fascicularis
# condition-details: cynomolgus monkey
measured-parameter: MRT (h)
Answer with a number only, understood to be in h.

Looking up Cl.Nc1ccccc1NC(=O)c1ccc(CN2CCC/C(=C\c3ccccn3)C2=O)cc1 , I found its MRT recorded as 8.28

* * *

# measurement-description: Cmax in ICR mouse at 100 mg/kg, po measured upto 24 hrs by LC-MS/MS analysis
# Assay type: ADME, organism-based
# Set-up: time < 24 hrs, dose 100 mg/kg, route po
# condition-details: in vivo
measured-parameter: Cmax (µg/mL)
Please state the figure in µg/mL; there is no need to write the unit.

Summary for this compound, Cl.Nc1ccccc1NC(=O)c1ccc(CN2CCC/C(=C\c3ccccn3)C2=O)cc1 : Cmax is 58.3

* * *

# measurement-description: Oral bioavailability in dog plasma at 10 mg/kg measured upto 24 hrs by LC-MS/MS analysis
# Type: ADME, organism-based, Canis lupus familiaris
measured-parameter: bioavailability (%)
Give the quantity in %, number only.

The value of bioavailability measured for the compound Cl.Nc1ccccc1NC(=O)c1ccc(CN2CCC/C(=C\c3ccccn3)C2=O)cc1 turned out to be 58.9

* * *

# measurement-description: Cmax in CB.17 SCID mouse xenografted with human TMD8 cells at 25 mg/kg, po measured upto 24 hrs by LC-MS/MS analysis
# Type: ADME, organism-based
# Set-up: dose 25 mg/kg, time < 24 hrs, route po
# condition-details: in vivo
measured-parameter: Cmax (ng/mL)
The reply should contain only the number, in ng/mL.

The value of Cmax measured for the compound Nc1ccccc1NC(=O)c1ccc(CN2CCC/C(=C\c3ccccn3)C2=O)cc1 turned out to be 1700

* * *

# measurement-description: Cmax in dog plasma at 10 mg/kg, po measured upto 24 hrs by LC-MS/MS analysis
# Format: ADME, organism-based, Canis lupus familiaris
# Set-up: time < 24 hrs, dose 10 mg/kg, route po
measured-parameter: Cmax (ng/mL)
State the answer as a number, implicitly in ng/mL.

Cmax for Cl.Nc1ccccc1NC(=O)c1ccc(CN2CCC/C(=C\c3ccccn3)C2=O)cc1 is 4740

* * *

# measurement-description: AUC (0 to infinity) in ICR mouse at 10 mg/kg, po measured upto 24 hrs by LC-MS/MS analysis
# Type: ADME, organism-based
# Design: time < 24 hrs, dose 10 mg/kg, route po
# condition-details: in vivo
measured-parameter: AUC(0-inf) (ng·h/mL)
Give your result in ng·h/mL as a bare value.

For reference, reported AUC(0-inf) for Cl.Nc1ccccc1NC(=O)c1ccc(CN2CCC/C(=C\c3ccccn3)C2=O)cc1 stands at 2670

* * *

Read-out record for UniProtKB Q13547: pIC50
By convention, pIC50 is the negative base-10 log of a molar concentration.

A selection of reference data follows.
1) Nc1ccccc1NC(=O)c1ccc(CN2CCC/C(=C\c3ccc(Cl)c(F)c3)C2=O)cc1 :: 6.24
2) Nc1ccccc1NC(=O)c1ccc(CN2CCC/C(=C\c3ccccc3Cl)C2=O)cc1 :: 6.40
3) Nc1ccccc1NC(=O)c1ccc(CN2CCC/C(=C\c3ccncc3)C2=O)cc1 :: 6.57
4) Cc1cccc(/C=C2\CCCN(Cc3ccc(C(=O)Nc4ccc(F)cc4N)cc3)C2=O)c1 :: 6.03
5) Nc1cc(F)ccc1NC(=O)c1ccc(CN2CCC/C(=C\c3ccco3)C2=O)cc1 :: 5.92

Log: UniProtKB Q13547, molecule Nc1ccccc1NC(=O)c1ccc(CN2CCC/C(=C\c3ccco3)C2=O)cc1 , pIC50 = 6.52

Record for Nc1ccccc1NC(=O)c1ccc(CN2CCC/C(=C\c3ccc(Cl)c(C(F)(F)F)c3)C2=O)cc1 under target or system UniProtKB Q13547: pIC50 reported as 5.83

Summary: Nc1cc(F)ccc1NC(=O)c1ccc(CN2CCC/C(=C\c3ccccc3Cl)C2=O)cc1 , UniProtKB Q13547, pIC50 = 5.96

Query Nc1cc(F)ccc1NC(=O)c1ccc(CN2CCC/C(=C\c3ccc4ccccc4c3)C2=O)cc1 on UniProtKB Q13547; pIC50 returned: 5.92

* * *

# measurement-description: MRT (0 to t) in CB.17 SCID mouse xenografted with human TMD8 cells at 25 mg/kg, po measured upto 24 hrs by LC-MS/MS analysis
# Type: ADME, organism-based
# condition-details: in vivo
measured-parameter: MRT last at 24 h (min)
Kindly provide the numeric value in min only, without the unit symbol.

Lab note: Nc1ccccc1NC(=O)c1ccc(CN2CCC/C(=C\c3ccccn3)C2=O)cc1 gave MRT last at 24 h of 45

* * *

# measurement-description: MRT(0 to infinity) in CB.17 SCID mouse xenografted with human TMD8 cells at 100 mg/kg, po measured upto 24 hrs by LC-MS/MS analysis
# Format: ADME, organism-based
# condition-details: in vivo
measured-parameter: MRT inf (h)
Give a bare numeral; the unit h is implied.

Lab note: measured MRT inf of Nc1ccccc1NC(=O)c1ccc(CN2CCC/C(=C\c3ccccn3)C2=O)cc1 was 1.51

* * *

# measurement-description: MRT (0 to t) in CB.17 SCID mouse xenografted with human TMD8 cells at 50 mg/kg, po measured upto 24 hrs by LC-MS/MS analysis
# Assay type: ADME, organism-based
# condition-details: in vivo
measured-parameter: MRT last at 24 h (min)
Note: unit min is implicit; provide only the numeric part.

For this compound ( Nc1ccccc1NC(=O)c1ccc(CN2CCC/C(=C\c3ccccn3)C2=O)cc1 ), measured MRT last at 24 h is 48.7

* * *

# measurement-description: MRT in dog plasma at 1 mg/kg, iv measured upto 24 hrs by LC-MS/MS analysis
# Assay type: ADME, organism-based, Canis lupus familiaris
measured-parameter: MRT (h)
// note: answer is a bare numeric in h

Measured MRT of Cl.Nc1ccccc1NC(=O)c1ccc(CN2CCC/C(=C\c3ccccn3)C2=O)cc1 : 2.26

* * *

# measurement-description: Metabolic stability in dog liver microsomes assessed as intrinsic clearance measured for 75 to 130 mins by LC-MS/MS analysis
# Assay type: ADME, Canis lupus familiaris, Microsome
# condition-details: time 75-130 min, read-out: CLH
measured-parameter: microsomal CLint

Value of measured microsomal CLint for the entry Nc1ccccc1NC(=O)c1ccc(CN2CCC/C(=C\c3ccccn3)C2=O)cc1 : 1.32 µL/min/mg

* * *

# measurement-description: Clearance in monkey plasma at 1 mg/kg, iv measured upto 24 hrs by LC-MS/MS analysis
# Type: ADME, organism-based, Macaca fascicularis
# condition-details: cynomolgus monkey, in vivo
measured-parameter: clearance
Note: a bare number is incomplete; add the unit.

Quick note, clearance for Cl.Nc1ccccc1NC(=O)c1ccc(CN2CCC/C(=C\c3ccccn3)C2=O)cc1 landed at 1.35 mL/min/kg

* * *

# measurement-description: Half life in ICR mouse at 10 mg/kg, po measured upto 24 hrs by LC-MS/MS analysis
# Format: ADME, organism-based
# condition-details: in vivo
measured-parameter: half-life (h)
Kindly provide the numeric value in h only, without the unit symbol.

Cl.Nc1ccccc1NC(=O)c1ccc(CN2CCC/C(=C\c3ccccn3)C2=O)cc1 has a reported half-life of 1.31

* * *

# measurement-description: MRT(0 to infinity) in CB.17 SCID mouse xenografted with human TMD8 cells at 25 mg/kg, po measured upto 24 hrs by LC-MS/MS analysis
# Type: ADME, organism-based
# condition-details: in vivo
measured-parameter: MRT inf (min)
// note: answer is a bare numeric in min

Consider Nc1ccccc1NC(=O)c1ccc(CN2CCC/C(=C\c3ccccn3)C2=O)cc1 . Its measured MRT inf is 48.3

* * *

# measurement-description: Metabolic stability in monkey liver microsomes assessed as intrinsic clearance measured for 75 to 130 mins by LC-MS/MS analysis
# Assay type: ADME, Macaca fascicularis, Microsome
# condition-details: cynomolgus monkey, time 75-130 min, read-out: CLH
measured-parameter: microsomal CLint (µL/min/mg)
Enter your answer as a number in µL/min/mg; do not include the unit.

GET /value?item= Nc1ccccc1NC(=O)c1ccc(CN2CCC/C(=C\c3ccccn3)C2=O)cc1 &field=microsomal CLint returns 14.1

* * *

# measurement-description: Cmax in monkey plasma at 10 mg/kg, po measured upto 24 hrs by LC-MS/MS analysis
# Type: ADME, organism-based, Macaca fascicularis
# Set-up: time < 24 hrs, dose 10 mg/kg, route po
# condition-details: cynomolgus monkey
measured-parameter: Cmax (ng/mL)
I only need the number, in ng/mL, no unit after it.

Briefly, Cmax measured for Cl.Nc1ccccc1NC(=O)c1ccc(CN2CCC/C(=C\c3ccccn3)C2=O)cc1 : 8520
